# method_summary: chemical genetic growth profiling, strain panel (AID 1159580);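 also: tested at 20 µM; growth read once vehicle control cultures reached saturation at 30 °C; 1 = growth at the plate median or of vehicle wells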
# run_conditions: S. cerevisiae deletion strains, growth OD, locus YLR113W, strain HOG1, stronger effect = lower value
The whole screen tested about 5,500 compounds, of which about 2,000 (36%) were called active. About 18% were inconclusive and are not listed. The list shows a part of the results.
Cut-off 1 on normalized growth: below means 1 (yes), at or above means 0 (no).

The following compounds have reported results that may help.
>  <cpd_smiles>
CCCCOC(=O)c1ccccc1C(=O)OCCCC

>  <group_label>
1 (yes)

$$$$
>  <cpd_smiles>
CC(C)(CO)[C@@H](O)C(=O)NCCCO

>  <group_label>
1 (yes)

$$$$
>  <cpd_smiles>
O=[N+]([O-])c1ccc(Sc2ssc(=S)c2-c2ccccc2)nc1

>  <group_label>
1 (yes)

$$$$

Turning to the following compound.
Check if normalized growth falls below 1 for CC(=O)OCC[C@H](C)CCC=C(C)C .
0 (no)
